CC50 values by entry
Test system: LOX IMVI (melanoma)
Test: NCI in vitro 60 cell panel, LOX IMVI
Assay type: cell-based
Conditions: Homo sapiens, read-out: Most Senstive Cells Lines mean log10 LC50 (converted)

molecule | CC50
Cc1ccc(S(=O)(=O)n2c(C3(O)C=CC(=O)C=C3)cc3ccccc32)cc1 [SIQ-04] | 234 nM
O=C1C=CC(O)(c2cc3ccccc3n2S(=O)(=O)c2ccccc2)c2ccccc21 (stereo not drawn) [SIQ-10] | 776 nM
O=C1C=CC(O)(c2cc3cc(F)ccc3n2S(=O)(=O)c2ccccc2)C=C1 [SIQ-03] | 63.1 nM
Cc1ccc(S(=O)(=O)n2c(C3(O)C=CC(=O)c4ccccc43)cc3ccccc32)cc1 (stereo not drawn) [SIQ-11] | 724 nM
COc1ccc(S(=O)(=O)n2c(C3(O)C=CC(=O)C=C3)cc3ccccc32)cc1 [SIQ-05] | 380 nM
COc1ccc2c(c1)cc(C1(O)C=CC(=O)C=C1)n2S(=O)(=O)c1ccccc1 [SIQ-02] | 468 nM

###

Target: Thioredoxin/Thioredoxin Reductase (Tx/TR) (Homo sapiens, UniProt P10599)
Construct: was purified from human placenta as previously described; TR: purified from human placenta tissue
Sequence (P10599 2-105 limits assumed): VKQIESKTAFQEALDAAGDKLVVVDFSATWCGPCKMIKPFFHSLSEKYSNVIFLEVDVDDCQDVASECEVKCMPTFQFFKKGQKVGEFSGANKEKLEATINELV
Experiment: Thioredoxin/thioredoxin reductase-catalysed reduction of insulin
Conditions: 30 min at 37° C.

compound | tested-target | IC50
Cc1ccc(S(=O)(=O)n2c(C3(O)C=CC(=O)C=C3)cc3ccccc32)cc1 [SIQ-04] | Thioredoxin/Thioredoxin Reductase (Tx/TR) (Homo sapiens, UniProt P10599) | < 100 µM

###

CC50 values by entry
Tested on: HCT-116 (colon)
Assay: NCI in vitro 60 cell panel, HCT-116
Type: cell-based
Conditions: Homo sapiens, read-out: Most Senstive Cells Lines mean log10 LC50 (converted)
readout-label: CC50 (nM)

molecule | unit-abbreviation | numeric-readout
O=C1C=CC(O)(c2cc3ccccc3n2S(=O)(=O)c2ccc(F)cc2)C=C1 | nM | 363
Cc1ccc(S(=O)(=O)n2c(C3(O)C=CC(=O)c4ccccc43)cc3ccccc32)cc1 (stereo not drawn) | nM | 490
O=C1C=CC(O)(c2cc3ccccc3n2S(=O)(=O)c2ccccc2)c2ccccc21 (stereo not drawn) | nM | 794
Cc1ccc(S(=O)(=O)n2c(C3(O)C=CC(=O)C=C3)cc3ccccc32)cc1 | nM | 47.9
O=C1C=CC(O)(c2cc3cc(F)ccc3n2S(=O)(=O)c2ccccc2)C=C1 | nM | 50.1
COc1ccc(S(=O)(=O)n2c(C3(O)C=CC(=O)C=C3)cc3ccccc32)cc1 | nM | 112
CC(C)c1cc(C(C)C)c(S(=O)(=O)n2c(C3(O)C=CC(=O)C=C3)cc3ccccc32)c(C(C)C)c1 | nM | 550
O=C1C=CC(O)(c2cc3ccccc3n2S(=O)(=O)c2ccccc2)C=C1 | nM | 33.1
O=C1C=CC(O)(c2cc3ccccc3n2S(=O)(=O)c2ccc3ccccc3c2)C=C1 | nM | 372

###

System: 60 human cancer cell lines
Experiment: NCI in vitro 60 cell panel (48 hour drug exposure)
Format: cell-based
Conditions: mean across 60 cell lines, 48 hour drug exposure, read-out: Mean log10 LC50 (converted)
Procedure: Compounds were tested for in vitro activity (48 hour drug exposure) across 60 human cancer cell lines through the National Cancer Institute (NCl) Developmental Therapies Screening Program (Boyd et al., 1995).
LC50 values by entry

compound | unit-abbreviation | LC50
O=C1C=CC(O)(c2cc3ccccc3n2S(=O)(=O)c2ccc3ccccc3c2)C=C1 | µM | 5.62
O=C1C=CC(O)(c2cc3cc(F)ccc3n2S(=O)(=O)c2ccccc2)C=C1 | µM | 3.24
Cc1ccc(S(=O)(=O)n2c(C3(O)C=CC(=O)c4ccccc43)cc3ccccc32)cc1 (stereo not shown) | µM | 5.62
O=C1C=CC(O)(c2cc3ccccc3n2S(=O)(=O)c2ccc(F)cc2)C=C1 | µM | 7.76
O=C1C=CC(O)(c2cc3ccccc3n2S(=O)(=O)c2ccccc2)C=C1 | µM | 2.95
O=C1C=CC(O)(c2cc3ccccc3n2S(=O)(=O)c2ccccc2)c2ccccc21 (stereo not shown) | µM | 7.76
COc1ccc(S(=O)(=O)n2c(C3(O)C=CC(=O)C=C3)cc3ccccc32)cc1 | µM | 6.31
Cc1ccc(S(=O)(=O)n2c(C3(O)C=CC(=O)C=C3)cc3ccccc32)cc1 | µM | 7.24
COc1ccc2c(c1)cc(C1(O)C=CC(=O)C=C1)n2S(=O)(=O)c1ccccc1 | µM | 6.17
CC(C)c1cc(C(C)C)c(S(=O)(=O)n2c(C3(O)C=CC(=O)C=C3)cc3ccccc32)c(C(C)C)c1 | µM | 11.2
